molecular target: Human Calpain 1/NS1 (Homo sapiens, UniProt P07384); experiment: Calpain inhibition continuous fluorescence (FRET) assay, Human Calpain 1/NS1; type: biochemical; conditions: Column A; read-out: Human Calpain 1/NS1 IC50
Sequence (P07384 whole entry): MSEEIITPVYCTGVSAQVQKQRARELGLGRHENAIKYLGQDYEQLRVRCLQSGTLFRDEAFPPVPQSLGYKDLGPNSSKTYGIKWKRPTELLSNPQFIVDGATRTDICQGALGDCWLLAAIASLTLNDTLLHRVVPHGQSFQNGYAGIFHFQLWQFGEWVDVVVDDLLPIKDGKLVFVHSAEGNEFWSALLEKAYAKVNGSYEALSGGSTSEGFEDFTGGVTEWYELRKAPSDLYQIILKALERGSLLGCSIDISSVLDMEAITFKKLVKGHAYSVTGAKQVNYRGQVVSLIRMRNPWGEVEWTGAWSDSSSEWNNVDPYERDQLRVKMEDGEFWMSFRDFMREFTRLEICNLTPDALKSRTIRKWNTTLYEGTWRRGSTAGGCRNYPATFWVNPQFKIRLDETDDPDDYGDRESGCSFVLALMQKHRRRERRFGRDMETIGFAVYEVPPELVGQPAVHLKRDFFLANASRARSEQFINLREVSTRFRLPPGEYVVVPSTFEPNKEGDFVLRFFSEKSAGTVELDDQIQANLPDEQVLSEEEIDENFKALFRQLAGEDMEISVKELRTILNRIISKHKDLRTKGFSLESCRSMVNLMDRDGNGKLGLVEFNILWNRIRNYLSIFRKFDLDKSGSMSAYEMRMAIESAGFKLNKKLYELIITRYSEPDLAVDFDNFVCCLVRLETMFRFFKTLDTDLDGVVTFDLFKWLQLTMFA
Sequence (P04632 whole entry partner): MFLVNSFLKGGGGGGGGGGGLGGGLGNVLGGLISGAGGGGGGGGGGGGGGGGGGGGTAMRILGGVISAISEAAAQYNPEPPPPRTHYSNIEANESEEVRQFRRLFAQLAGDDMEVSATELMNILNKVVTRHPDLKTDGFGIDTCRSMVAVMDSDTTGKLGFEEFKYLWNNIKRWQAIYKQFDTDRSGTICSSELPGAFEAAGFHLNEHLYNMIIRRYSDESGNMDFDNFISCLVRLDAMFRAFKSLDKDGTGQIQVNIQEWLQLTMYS
Structures can show the parent of a compound that is named as a salt.
Result type: IC50

[[record]]
compound = "O=C(NC1CC1)C(=O)[C@H](Cc1ccccc1)NC(=O)c1nn[nH]c1-c1ccccc1"
result_type = "IC50"
result = "> 10 µM"

[[record]]
compound = "N#Cc1cc(C(=O)N[C@@H](Cc2ccccc2)C(=O)C(N)=O)nn1-c1ccccc1"
result_type = "IC50"
result = "> 10 µM"

[[record]]
compound = "Cc1cc(C(=O)N[C@@H](Cc2ccccc2)C(=O)C(N)=O)n(-c2cccc(-c3ccccc3C)c2)n1"
result_type = "IC50"
result = "< 3 µM"

[[record]]
compound = "NC(=O)C(=O)[C@H](Cc1ccccc1)NC(=O)c1cncn1-c1ncc(-c2ccccc2)cn1"
result_type = "IC50"
result = "< 3 µM"

[[record]]
compound = "Cc1cc(C(=O)N[C@@H](Cc2ccccc2)C(=O)C(N)=O)n(-c2ccc(CNCc3ccccc3)cc2)n1 [Compound 160, hydrochloride]"
result_type = "IC50"
result = "< 3 µM"

[[record]]
compound = "O=C[C@H](Cc1ccccc1)NC(=O)c1cncs1"
result_type = "IC50"
result = "3 to 10 µM"

[[record]]
compound = "Cc1noc(-c2ccccc2)c1C(=O)N[C@@H](Cc1ccccc1)C(=O)C(=O)NCc1ccc2c(c1)OCO2"
result_type = "IC50"
result = "< 3 µM"

[[record]]
compound = "Cc1cc(C(=O)N[C@@H](Cc2ccccc2)C(=O)C(N)=O)n(-c2ccncn2)n1"
result_type = "IC50"
result = "< 3 µM"

[[record]]
compound = "Cn1cc(C(=O)N[C@@H](Cc2ccccc2)C(=O)C(N)=O)c(-c2ccccn2)n1"
result_type = "IC50"
result = "< 3 µM"

[[record]]
compound = "NC(=O)C(=O)[C@H](Cc1ccccc1)NC(=O)c1cncn1-c1ccc(-c2ncco2)cn1"
result_type = "IC50"
result = "< 3 µM"

